Reference source for all entries: BindingDB's records for doi:10.1021/jm00139a009

ASSAYED SYSTEM: Dihydrofolate reductase (Rattus norvegicus)
Sequence (Q920D2 whole entry): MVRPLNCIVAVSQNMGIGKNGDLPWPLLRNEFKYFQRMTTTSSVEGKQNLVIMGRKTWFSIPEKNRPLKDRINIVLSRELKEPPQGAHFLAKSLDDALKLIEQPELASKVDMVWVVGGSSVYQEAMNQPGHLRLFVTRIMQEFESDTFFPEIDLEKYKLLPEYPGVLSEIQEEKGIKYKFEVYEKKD
MEASURED METRIC: IC50 (nM)

// IC50 lookup, compound = `Nc1nc(N)c2cc(NC(=O)Cc3ccc4ccccc4c3)ccc2n1` , result: 5.01

// IC50 lookup, compound = `Nc1nc(N)c2c(Cl)c(Br)ccc2n1` , result: 100

// IC50 lookup, compound = `Nc1nc(N)c2c(S(=O)(=O)c3ccc4ccccc4c3)cccc2n1` , result: 15100

// IC50 lookup, compound = Nc1nc(N)c2cc(Sc3cccc(C(F)(F)F)c3)ccc2n1 [WR-159412] , result: 36.3

// IC50 lookup, compound = Nc1nc(N)c2c([S+]([O-])c3ccc(Cl)c(Cl)c3)cccc2n1 (centres undefined) , result: 55000

// IC50 lookup, compound = `Nc1nc(N)c2c(Cl)c(NC(=O)Cc3ccc4ccccc4c3)ccc2n1` , result: 5.01

// IC50 lookup, compound = `Nc1nc(N)c2c(Sc3ccc(Cl)c(Cl)c3)cccc2n1` , result: 200

// IC50 lookup, compound = `NCc1ccc2nc(N)nc(N)c2c1` , result: 9330

// IC50 lookup, compound = `Cc1c(NC(=O)Cc2ccc3ccccc3c2)ccc2nc(N)nc(N)c12` , result: 4.17

// IC50 lookup, compound = `Nc1nc(N)c2c(Cl)cccc2n1` , result: 562

(a) Nc1nc(N)c2cc(NCc3ccc(Cl)c(Cl)c3)ccc2n1
(b) Nc1nc(N)c2c(Cl)c(N)ccc2n1
(c) Nc1nc(N)c2c(/C=C/c3ccc4ccccc4c3)cccc2n1
(d) O=[N+]([O-])c1ccc(/C=C/C=C/c2ccccc2)cc1
Query: Please list the entries, largest IC50 first. Form entry: ranked labels (order as requested).
Response: c, b, a, d
